Assay: β-sheet content by ATR-FT-IR
Assay type: physicochemical
Details: peptides with TEM 2cat 0
Method: For ATR FT–IR spectroscopy measurements, 200 µL of the respective 1 mg/mL PNF solution was lyophilized and the resulting powder used for measurement. All spectra were recorded on a Bruker Tensor 27 spectrometer with a diamond crystal as ATR element (PIKE MiracleTM, spectral resolution 2 cm^-1). Every sample was measured with 64 scans. Data were analyzed with OriginLab software and calculation of β–sheet content was conducted according to a previous report. TEM. […]
# beta sheet per record follows

{"Sequence Input": "HHHHKIKIKIKIWWWW", "beta sheet": 49}
{"Sequence Input": "KIKIKIKIWW", "beta sheet": 49}
{"Sequence Input": "HHHHKIKIKIKIYYYY", "beta sheet": 53}
{"Sequence Input": "KIKIKIKIYYYY", "beta sheet": 57}
{"Sequence Input": "KIKIQINMWWWQ", "beta sheet": 48}
{"Sequence Input": "KIKIQINMWWQ", "beta sheet": 50}
{"Sequence Input": "EIEIQINMWQ", "beta sheet": 54}

* * *

Entries and their Fibril values follow.
Format: physicochemical
Design: key: 1 = fibrils present; 0 non-fibrillar structures
Details: TEM; 1 = fibrils present, 0 = non-fibrillar

{"Substance": "RGDKIKIQINMWQ", "Fibril": 1}
{"Substance": "KIKIQINMWQ", "Fibril": 1}
{"Substance": "PPFHPPPFHP", "Fibril": 0}
{"Substance": "KIKIQINMWQRGD", "Fibril": 0}
{"Substance": "QCKAKAQANMWQ", "Fibril": 0}
{"Substance": "ILKNLSRSRKIKIQIC", "Fibril": 1}
{"Substance": "QCKIKQIINM", "Fibril": 1}
{"Substance": "CEIEIQI", "Fibril": 1}
{"Substance": "KVKVQVV", "Fibril": 0}
{"Substance": "CKIKIQINMWQ", "Fibril": 1}
{"Substance": "CRFRFQF", "Fibril": 1}
{"Substance": "KIKIKIKIWW", "Fibril": 0}
{"Substance": "HGDKCHGDKC", "Fibril": 0}
{"Substance": "KYKGAIIGNIK", "Fibril": 0}
{"Substance": "MKIKIQINMWQ", "Fibril": 1}
{"Substance": "KIKIQINMWWWQ", "Fibril": 0}
{"Substance": "CEIEIQINMWQ", "Fibril": 1}
{"Substance": "QCKIKIQINMWQ", "Fibril": 1}
{"Substance": "RLRLTLC", "Fibril": 1}
{"Substance": "KFKFQFF", "Fibril": 1}

* * *

Tested on: HIV-1 infection of TZM-bl cells
Experiment: HIV-1 infectivity enhancement assay, β-galactosidase luminescence
Format: cell-based
Settings: infectivity class (low / medium / high) of the peptide in the sequence-pattern analysis, Fig. S22-A4; class limits not given
Assay Endpoint: infectivity

{"Substance": "CKFKFQF [BL4]", "Assay Endpoint": "infectivity", "Assay Value": "high"}
{"Substance": "CKIKQII [MG4a]", "Assay Endpoint": "infectivity", "Assay Value": "low"}
{"Substance": "CKFKFQFNMW [KB14]", "Assay Endpoint": "infectivity", "Assay Value": "high"}
{"Substance": "KIKIQIMQWN [VH16]", "Assay Endpoint": "infectivity", "Assay Value": "high"}
{"Substance": "KVKVQVV [TG2]", "Assay Endpoint": "infectivity", "Assay Value": "low"}
{"Substance": "KIEIQINM [NM6]", "Assay Endpoint": "infectivity", "Assay Value": "low"}
{"Substance": "CKFKFQFNM [BL3]", "Assay Endpoint": "infectivity", "Assay Value": "high"}
{"Substance": "KFKQFFINMWQ [VH14]", "Assay Endpoint": "infectivity", "Assay Value": "high"}
{"Substance": "KFKFKFQF [TG18]", "Assay Endpoint": "infectivity", "Assay Value": "high"}
{"Substance": "CKIKIQI [MG3b]", "Assay Endpoint": "infectivity", "Assay Value": "high"}
{"Substance": "RGDKIKIQINMWQ [MG9a]", "Assay Endpoint": "infectivity", "Assay Value": "high"}
{"Substance": "CSISIQI [TM141]", "Assay Endpoint": "infectivity", "Assay Value": "low"}
